B1: library; numbered along this chain (parent)
chain: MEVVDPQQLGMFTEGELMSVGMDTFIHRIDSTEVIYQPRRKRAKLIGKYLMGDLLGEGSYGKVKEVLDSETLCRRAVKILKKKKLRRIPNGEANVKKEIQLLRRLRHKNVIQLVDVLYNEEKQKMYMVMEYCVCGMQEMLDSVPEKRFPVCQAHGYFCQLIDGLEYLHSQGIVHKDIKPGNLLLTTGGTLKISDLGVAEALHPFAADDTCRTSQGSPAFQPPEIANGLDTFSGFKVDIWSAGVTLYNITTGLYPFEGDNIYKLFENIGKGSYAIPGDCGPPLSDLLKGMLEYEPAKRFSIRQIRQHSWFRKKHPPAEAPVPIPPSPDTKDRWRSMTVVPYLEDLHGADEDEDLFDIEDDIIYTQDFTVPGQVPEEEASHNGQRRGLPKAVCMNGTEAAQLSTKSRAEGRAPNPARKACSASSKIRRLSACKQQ

Variants of: B1
Experiment: STK11 functional score (HeLa growth suppression), rescaled enrichment; synonymous median = 1, nonsense median = 0 (normalised score)
Details: with HeLa; variant type: missense
Give measured STK11 functional score for each item. Keep answers brief.
Enter the number alone.

Param item = `D365S` ; retrieve measured STK11 functional score.
1.51

Param item = `K44W` ; retrieve measured STK11 functional score.
1.3

Param item = `E14P` ; retrieve measured STK11 functional score.
1.65

Param item = `E14Y` ; retrieve measured STK11 functional score.
1.34

Param item = `D277C` ; retrieve measured STK11 functional score.
1.32

Param item = `F309D` ; retrieve measured STK11 functional score.
-0.479

Param item = `I424V` ; retrieve measured STK11 functional score.
1.33

Param item = `I172G` ; retrieve measured STK11 functional score.
0.806

Param item = `S31M` ; retrieve measured STK11 functional score.
0.857

Param item = `C134Y` ; retrieve measured STK11 functional score.
1.15

Param item = `G242A` ; retrieve measured STK11 functional score.
0.823

Param item = `G15L` ; retrieve measured STK11 functional score.
1.48

Param item = `L344C` ; retrieve measured STK11 functional score.
1.12

Param item = `H27Y` ; retrieve measured STK11 functional score.
1.24

Param item = `A389E` ; retrieve measured STK11 functional score.
1.52

Param item = `S299F` ; retrieve measured STK11 functional score.
0.544

Param item = `I300L` ; retrieve measured STK11 functional score.
1.25

Param item = `S378V` ; retrieve measured STK11 functional score.
1.04

Param item = `T189R` ; retrieve measured STK11 functional score.
1.41

Param item = `K269S` ; retrieve measured STK11 functional score.
1.41

Param item = `I274G` ; retrieve measured STK11 functional score.
1.05

Param item = `L190I` ; retrieve measured STK11 functional score.
1.04
